target-of-assay: purified rabbit 20s proteasome (Oryctolagus cuniculus)
Construct: purchased Boston Biochem (Cambridge, Mass.)
Sequence (G1T4Q9 1-263): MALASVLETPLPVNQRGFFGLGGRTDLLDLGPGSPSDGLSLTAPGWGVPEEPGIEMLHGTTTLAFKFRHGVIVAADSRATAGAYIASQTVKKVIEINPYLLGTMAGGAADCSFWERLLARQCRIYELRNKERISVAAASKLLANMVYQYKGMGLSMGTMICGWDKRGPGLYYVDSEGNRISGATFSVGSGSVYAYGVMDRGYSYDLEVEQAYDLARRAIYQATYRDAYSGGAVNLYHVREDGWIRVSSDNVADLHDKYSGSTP
measurement-description: Inhibition of chymotrypsin-like activity of purified 20S proteasome
Assay type: biochemical
condition-notes: Suc-Leu-Leu-Val-Tyr-AMC, 2 h incubation, Table 1; read-out: IC50 (μM), unprotected
Procedure: Measurement of the chyrnotrypsin-like activity of the 20s proteasome was performed by incubating 0.5 μg of purified rabbit 20s proteasome with 40 μM fluorogenic peptide substrate, Suc-Leu-Leu-Val-Tyr-AMC, with or without various concentrations of natural and synthetic tea polyphenols as described previously (Nam S et. al.). In order to test this hypothesis, proteasome activity was tested both in vitro and in intact Jurkat T cells with either 1 or (−)-EGCG (as a positive control). […]
assay-readout: IC50 (µM)
Give a bare numeral; the unit µM is implied.

Consider the following illustrative entries.
compound	target-of-assay	IC50 (µM)
O=C(OC1Cc2c(O)cc(O)c(Cc3ccccc3)c2OC1c1ccc(O)c(O)c1)c1cc(O)c(O)c(O)c1 (stereo not drawn)	purified rabbit 20s proteasome (Oryctolagus cuniculus)	0.59
O=C(O[C@@H]1Cc2c(O)cc(O)cc2O[C@@H]1c1ccc(O)c(O)c1)c1ccc(O)cc1	purified rabbit 20s proteasome (Oryctolagus cuniculus)	5.99

Turning now to a further record.
Lookup result for O=C(O[C@@H]1Cc2c(O)cc(O)cc2O[C@@H]1c1ccc(O)cc1)c1ccc(O)cc1 ; measured IC50: 8.51
